Below, each entry is listed alongside its reported Percent Effect.
# System tested: Chromo domain-containing protein 1 (Saccharomyces cerevisiae (strain ATCC 204508 / S288c) (Baker's yeast)) (UniProt P32657)
# Sequence (P32657 whole entry, the tested form may be a part): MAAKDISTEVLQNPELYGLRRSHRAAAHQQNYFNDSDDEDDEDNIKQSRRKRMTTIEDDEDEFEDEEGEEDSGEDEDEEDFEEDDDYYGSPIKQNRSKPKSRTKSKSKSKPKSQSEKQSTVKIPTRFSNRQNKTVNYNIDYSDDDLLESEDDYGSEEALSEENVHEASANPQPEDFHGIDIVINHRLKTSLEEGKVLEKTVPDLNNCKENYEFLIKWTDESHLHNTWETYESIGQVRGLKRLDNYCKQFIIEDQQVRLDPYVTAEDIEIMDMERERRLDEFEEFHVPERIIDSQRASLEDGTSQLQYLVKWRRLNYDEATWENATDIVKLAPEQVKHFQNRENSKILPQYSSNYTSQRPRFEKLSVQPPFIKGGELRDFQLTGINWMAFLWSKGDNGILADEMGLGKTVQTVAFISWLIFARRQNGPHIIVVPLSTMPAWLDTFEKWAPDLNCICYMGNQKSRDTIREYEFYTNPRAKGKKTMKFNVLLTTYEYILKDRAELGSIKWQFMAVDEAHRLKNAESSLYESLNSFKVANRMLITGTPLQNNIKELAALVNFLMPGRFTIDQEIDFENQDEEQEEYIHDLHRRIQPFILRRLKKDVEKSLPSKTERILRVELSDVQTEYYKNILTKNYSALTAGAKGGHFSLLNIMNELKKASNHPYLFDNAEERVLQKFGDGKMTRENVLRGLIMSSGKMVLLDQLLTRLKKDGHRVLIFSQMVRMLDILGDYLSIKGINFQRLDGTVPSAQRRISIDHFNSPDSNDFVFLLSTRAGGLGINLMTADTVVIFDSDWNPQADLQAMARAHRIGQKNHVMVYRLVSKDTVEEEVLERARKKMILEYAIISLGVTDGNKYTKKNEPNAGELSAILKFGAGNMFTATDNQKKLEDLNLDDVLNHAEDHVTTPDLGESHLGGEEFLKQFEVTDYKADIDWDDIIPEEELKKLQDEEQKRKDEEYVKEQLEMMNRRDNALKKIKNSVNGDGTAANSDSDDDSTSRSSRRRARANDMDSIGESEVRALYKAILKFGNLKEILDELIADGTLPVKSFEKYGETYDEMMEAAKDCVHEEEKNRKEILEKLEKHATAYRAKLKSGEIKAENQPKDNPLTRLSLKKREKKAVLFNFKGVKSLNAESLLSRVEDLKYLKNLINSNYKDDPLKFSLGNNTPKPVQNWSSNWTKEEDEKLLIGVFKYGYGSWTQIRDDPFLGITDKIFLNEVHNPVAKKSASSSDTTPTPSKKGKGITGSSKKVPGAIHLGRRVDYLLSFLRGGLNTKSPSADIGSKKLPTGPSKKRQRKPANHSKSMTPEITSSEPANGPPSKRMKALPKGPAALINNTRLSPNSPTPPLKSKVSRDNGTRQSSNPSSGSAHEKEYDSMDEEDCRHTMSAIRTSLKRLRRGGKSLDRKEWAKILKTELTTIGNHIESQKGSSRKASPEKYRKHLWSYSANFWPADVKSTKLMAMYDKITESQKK
# Test details: ScCHD-1 Enzyme Inhibition Assay
# Format: functional
# Parameters: scale not given: in the data most compounds retested in dose-response had high values
# Condition notes: 30 µM
Give a bare numeral; the unit % is implied.

- Compound: "CC(OCC1CC1)C(=O)N1CCCN(c2ncccc2C#N)CC1 (centres undefined)"
  Percent Effect (%): -5.69
- Compound: "Cc1cnn(CCC(=O)N2CCCC(c3nc(C)no3)C2)c1 (centres undefined)"
  Percent Effect (%): -10.1
- Compound: "CN(C)C(=O)C1CCCN1CCCNC(=O)c1ccccc1F (centres undefined)"
  Percent Effect (%): -3.39
- Compound: "O=C(Nc1ccccc1)N1CCn2nnc(COc3cccnc3)c2C1"
  Percent Effect (%): 5.54
- Compound: "CSCC[C@H](NC(=O)Cn1ccc2c(Cl)cccc21)C(=O)O"
  Percent Effect (%): -6.56
- Compound: "COc1ccc(CC(=O)N2CCCC(n3cc(C)cn3)C2)cc1F (centres undefined)"
  Percent Effect (%): -4.37
- Compound: "Cc1nn(C)c(C)c1NC(=O)CN1CCc2c(nc(C3CC3)n2C)C1"
  Percent Effect (%): -8.76
- Compound: "CCc1ncnc2c1CCN(Cc1ccccn1)CC2"
  Percent Effect (%): -3.62
- Compound: "Cc1noc(C2CCCCN2C(=O)NC2CCCC2)n1 (centres undefined)"
  Percent Effect (%): -4.56
- Compound: "c1ccc2oc(CCCN3CCOC(Cn4cccn4)C3)nc2c1 (centres undefined)"
  Percent Effect (%): 5.28

Qu. Determine from records and report Percent Effect for COc1ncccc1NC(=O)c1cccc(C)n1
Ans. -8.29

Qu. Determine from records and report Percent Effect for CC(NC(=O)c1cccs1)C(=O)NCc1ccccc1CN1CCCC1 (centres undefined)
Ans. -11.2

Qu. Determine from records and report Percent Effect for Cc1c(F)cc(C(=O)O)cc1S(=O)(=O)Nc1cccc(C(F)F)c1
Ans. -0.222

Qu. Determine from records and report Percent Effect for O=C(NCc1nn(-c2ccccc2)c2c1CCC2)NC1CC1
Ans. -1.68

Qu. Determine from records and report Percent Effect for CC1N(CC2CC2)C(=O)COC12CCN(Cc1nccs1)CC2 (centres undefined)
Ans. -5.43

Qu. Determine from records and report Percent Effect for CCc1cccc(N2CCC(NC(=O)c3ccc(=O)[nH]n3)CC2)c1
Ans. -11.3

Qu. Determine from records and report Percent Effect for CN(Cc1ccco1)Cc1cncc2c1CCN(c1ncccn1)C2
Ans. -2.02

Qu. Determine from records and report Percent Effect for CN(Cc1ccccn1)C1COC2(CCN(Cc3cccnc3)CC2)C1 (centres undefined)
Ans. -7.71

Qu. Determine from records and report Percent Effect for CC(C)c1nn(C)c(N(C)C)c1CNCc1cccc(CN(C)C)c1
Ans. -4.8

Qu. Determine from records and report Percent Effect for Cc1nn(C)c(N(C)C)c1CNCC(O)COc1ccccc1 (centres undefined)
Ans. -1.71

Qu. Determine from records and report Percent Effect for COCc1cccc(C(=O)N2CCCCC2c2nccs2)c1 (centres undefined)
Ans. -4.87

Qu. Determine from records and report Percent Effect for COCCOc1ncccc1C(=O)Nc1ccc(-n2cncn2)c(F)c1
Ans. -9.99

Qu. Determine from records and report Percent Effect for Cc1nsc(N2CCCN(c3nc(C4CC4)ns3)CC2)n1
Ans. -4.56

Qu. Determine from records and report Percent Effect for Cc1cc(C)c2cc(CNCc3ccccc3)c3nn(C)c(=O)n3c2c1
Ans. -30.5

Value source: ChEMBL document CHEMBL3988442
